Below, each entry is listed alongside its reported solubility at 18 h.
- Protocol notes: physchem
- Measurement context: water

INSERT INTO assay_data (compound, result) VALUES
  ('CC(=O)O[C@@]12CO[C@@H]1C[C@H](O)[C@@]1(C)C(=O)[C@H](OC(=O)CO[C@H]3O[C@H](CO)[C@H](O)[C@H](O)[C@H]3O)C3=C(C)[C@@H](OC(=O)[C@H](O)[C@@H](NC(=O)OC(C)(C)C)c4ccccc4)C[C@@](O)([C@@H](OC(=O)c4ccccc4)[C@H]21)C3(C)C', '482 µg/mL'),
  ('CC(=O)O[C@H]1C(=O)[C@]2(C)[C@@H](OC(=O)COC3O[C@H](CO)[C@@H](O)[C@H](O)[C@@H]3O)C[C@H]3OC[C@@]3(OC(C)=O)[C@H]2[C@H](OC(=O)c2ccccc2)[C@]2(O)C[C@H](OC(=O)[C@H](O)[C@@H](NC(=O)c3ccccc3)c3ccccc3)C(C)=C1C2(C)C (some centres unmarked)', '103 µg/mL'),
  ('CC(=O)O[C@H]1C(=O)[C@]2(C)[C@@H](OC(=O)COC3O[C@H](CO)[C@H](O)[C@H](O)[C@H]3O)C[C@H]3OC[C@@]3(OC(C)=O)[C@H]2[C@H](OC(=O)c2ccccc2)[C@]2(O)C[C@H](OC(=O)[C@H](O)[C@@H](NC(=O)c3ccccc3)c3ccccc3)C(C)=C1C2(C)C (some centres unmarked)', '67.8 µg/mL'),
  ('CC(=O)O[C@@]12CO[C@@H]1C[C@H](O)[C@@]1(C)C(=O)[C@H](OC(=O)CO[C@@H]3O[C@H](CO)[C@H](O)[C@H](O)[C@H]3O)C3=C(C)[C@@H](OC(=O)[C@H](O)[C@@H](NC(=O)OC(C)(C)C)c4ccccc4)C[C@@](O)([C@@H](OC(=O)c4ccccc4)[C@H]21)C3(C)C', '301 µg/mL');

solubility at 18 h reported for this compound CC(=O)O[C@@]12CO[C@@H]1C[C@H](O)[C@@]1(C)C(=O)[C@H](OC(=O)CO[C@H]3O[C@H](CO)[C@@H](O)[C@H](O)[C@@H]3O)C3=C(C)[C@@H](OC(=O)[C@H](O)[C@@H](NC(=O)OC(C)(C)C)c4ccccc4)C[C@@](O)([C@@H](OC(=O)c4ccccc4)[C@H]21)C3(C)C : 1040 µg/mL
